System: CCRF-CEM leukemia
Method: NCI tumour cell line growth inhibition, 48 h; in the data active means GI50 below about 0.43 µM; inactive means the rest
Where a SMILES comes first, the peptide text is derived from it. [ ]: non-standard residue; d: D form. The star is where a group is joined. NMeF = CN[C@@H](Cc1ccccc1)C(=O)O; NMeV = CN[C@H](C(=O)O)C(C)C; Boc = CC(C)(C)OC(=O)*; OBn = c1ccc(CO*)cc1
Select the correct class. Options are active, inactive and nothing else.

The following molecules have reported results that may help.
Query :: Hi team, can someone confirm the assay call for `S=C(c1ccc2c(c1)OCO2)N1CCN(c2cccc(Cl)c2)CC1` ?
Result :: inactive

Query :: Test call, this molecule: `O=C1/C(=C/c2ccccc2F)CN(C(=O)C(Cl)Cl)C/C1=C\c1ccccc1F`
Result :: active

Query :: Could you check what this test reported for CSC1=Nc2c(c(C)c(C)n2COC(CO)CO)C2=NC(=O)CC(C)N12 (stereo not drawn) ?
Result :: inactive

Query :: Returns: the outcome recorded for C=Cc1cc(OC)c2c(c1)c(=O)oc1c2cc(OC)c2c(O)ccc(C3OC(C)C(O)C(C)(O)C3O)c21 (stereo not drawn) in this assay.
Result :: active

Query :: Call for entry `COc1ccc2cc(Cn3cc[n+](Cc4ccc5ccccc5c4)c3)ccc2c1` :
Result :: inactive

Others:
Query :: Which outcome was entered for the molecule `Cc1cc(C)c2nc3nc(C)cc(C)c3c(N)c2c1` in this test?
Result :: inactive

Query :: Tell me the recorded outcome of this test for CC(C)[C@@H](C(=O)N1CCC[C@H]1C(=O)OCc1ccccc1)N(C)C(=O)[C@H](C(C)C)N(C)C(=O)[C@H](Cc1ccccc1)N(C)C(=O)[C@H](NC(=O)OC(C)(C)C)C(C)C (Boc-[dV][NMeF][NMeV][NMeV]P-OBn) .
Result :: inactive

Query :: Record request — test call for `CS(=O)(=O)c1ccc(Oc2cc(F)cc(C#N)c2)c2c1[C@H](O)C(F)(F)C2`
Result :: inactive

---

Test system: LOX IMVI melanoma
Method: NCI tumour cell line growth inhibition, 48 h
Measured log10 TGI, listed per entry for reference.
Would you kindly interpret these values as log10 of TGI expressed in µM?

Examples from the recorded data:
log10 TGI for c1ccc(CN2CCCCC(Sc3ccccc3)CC2)cc1 (centres undefined) is 1.49

Lab note: `CC(C)NC(=O)OCc1c(COC(=O)NC(C)C)c(-c2ccc(Cl)c(Cl)c2)n2c1CCC2` gave log10 TGI of 1.82

For this compound ( `O=C1/C(=C/c2ccc(Cl)cc2)N=C(c2ccccc2)N1c1nc2c(Cl)cc(Cl)cc2s1` ), measured log10 TGI is 1.73

Per the records, this compound ( `N#Cc1c(-c2cccc(Cl)c2)cc(-c2ccc(Cl)cc2)nc1N` ) has log10 TGI equal to 1.50

More entries:
GET /value?item= COC(=O)c1cc(C)ccc1C1CN=NC12Cc1cccc(C)c1C2=O (centres undefined) &field=log10 TGI returns 1.72

log10 TGI reading for `COc1ccc(CCN2CCC(Nc3nc4ccccc4n3Cc3ccc(F)cc3)CC2)cc1` : 0.45

Per the record, `COc1cc(-n2cnc(-c3ccc(Cl)cc3)c2)cc(OC)c1OC` has log10 TGI of 1.54

Entry under test: CCN(CC)CCCC(Cc1ccccc1)Nc1c2ccc(Cl)cc2nc2ccc(OC)cc12 (centres undefined) . Its log10 TGI was 0.48

Value of measured log10 TGI for the entry CC(=O)OC1CC2C(C)(C)C(=O)C=C[C@]2(C)C2CCC3(C)C(c4ccoc4)[C@@H](O)[C@H]4O[C@]43[C@]12C (some centres undefined) : 1.50

Per the record, `CNCCCNC1(c2cc3ccccc3s2)CCCCC1` has log10 TGI of 1.00

The value of log10 TGI measured for the compound CCC1c2[nH]c3ccccc3c2C[C@H]2C(=O)NC(CCCCNC(=O)OC(C)(C)C)C(=O)N12 (some centres undefined) turned out to be 1.74

Lab note: measured log10 TGI of O=C(Nc1cccc([N+](=O)[O-])c1)C(=O)C(C(=O)c1ccccc1F)C1OC(=O)C2C=CC=CC21 (centres undefined) was 1.71

Reported log10 TGI for `O=C(O)c1cccc2cccc(C(=O)O)c12.[Hg]` was 1.45

Per the records, this compound ( `C/C(=C\CCc1ccsc1)CC/C=C(\C)CCCN1CCC(CO)CC1` ) has log10 TGI equal to 0.51

Note to self: log10 TGI recorded for `N=c1n(Cc2ccccc2)c(N)cc(=O)n1Cc1ccccc1` was 1.04

---

Listed here are compounds together with their documented TGI.
System: A549 NSCLC
Method: NCI tumour cell line growth inhibition, 48 h

So for CNC(=O)C1CCCN1C(=O)C(Cc1cnc[nH]1)NC(=O)C1CCC(=O)N1 (configuration not stated) , the logged TGI turned out to be > 100 µM

Others:
Looking up CCC12CC(c3ccccc3)C(C(=O)N1)C(=O)N2 (configuration not stated) , I see its TGI listed as > 100 µM

The recorded TGI for entry `COc1ccc(-c2cc(-c3cc(C)ccc3O)[nH]c(=O)n2)cc1` equals > 100 µM

Query `O=C(CN1C(=O)S/C(=C\C(Cl)=C\c2ccccc2)C1=O)NCCc1ccc(O)cc1` yields TGI of > 100 µM

For record C=C(Br)C(C)(Br)CCC(Br)C(C)(C)Br (configuration not stated) the listed TGI is > 100 µM

# compound COC(=O)C(Cc1ccccc1)NC(=O)Cn1ccnc1[N+](=O)[O-] (configuration not stated) ; its TGI = > 100 µM

compound CC1OC(OC2C(CO)OC(O[C@H]3CC[C@@]4(C)C(=CC[C@H]5[C@@H]6C[C@@H]7O[C@](O)(CC[C@H](CO)COC8OC(CO)C(O)C(O)C8O)[C@@H](C)[C@@H]7[C@@]6(C)CC[C@@H]54)C3)C(OC3OC(C)C(O)C(O)C3O)C2O)C(O)C(O)C1O (some centres not stated) , TGI observed: > 100 µM

# compound Nc1cccc2c1C1=NNC(=O)CC1C2 (configuration not stated) ; its TGI = > 100 µM

Sure, the documented TGI for COC(=O)C(Cc1c(C2Nc3ccccc3C2CC(NC(C)=O)C(=O)OC)[nH]c2ccccc12)NC(C)=O (configuration not stated) is > 100 µM

Query `Cc1ccc2ccc3ccc(C)nc3c2n1` yields TGI of > 100 µM

Short answer for `COc1cc([C@H]2CC(=O)C[C@@H](c3cc(OC)c(OC)c(OC)c3)C23C(=O)c2ccccc2C3=O)cc(OC)c1OC` : TGI was > 100 µM

Field TGI (entry `CCn1c(-c2nonc2N)nc2cncc(C(=O)NCCNC)c21` ) reads > 23.3 µM

---

Test system: TK-10 renal
Method: NCI tumour cell line growth inhibition, 48 h
TGI for assorted molecules

Consider the reported TGI for these molecules:
Lab note: measured TGI of `COc1ccc2nc3cc([N+](=O)[O-])ccc3c(Nc3ccc(S(=O)(=O)N=C(N)N)cc3)c2c1` was > 100 µM

Measured TGI of `COC(=O)Cc1c(/C=C/C(C)(C)n2cnc(CCN3C(=O)CCC3=O)c2)[nH]c2ccccc12` : > 100 µM

***
Value of TGI reported for the molecule `N#C/C(C(=S)Nc1ccccc1)=C(/N)N1CCCC1` is > 100 µM

---

System: SF-268 CNS
Method: NCI tumour cell line growth inhibition, 48 h
The entries below are paired with their reported TGI.

Given item `NC(=O)Nc1ccc(C(=O)NCCCNC(=O)c2ccc(NC(N)=O)cc2)cc1` , the value recorded as its TGI is > 100 µM

Record summary for `CC(C)(O)CO/N=C1\C(c2c(O)[nH]c3ccccc23)=Nc2ccccc21` : reported TGI = > 60 µM

Lab note: next compound to report on.
Lookup result for `Cc1coc2c1C(=O)C(=O)c1c-2ccc2c1CCCC2(C)C` ; measured TGI: > 100 µM

---

Tested on: SF-268 CNS
Method: NCI tumour cell line growth inhibition, 48 h; in the data active = GI50 below about 0.43 µM; inactive = the rest
The categories you may choose from are y for active, n for inactive

Before answering, review these 3 worked examples.
Query :: Test call for this compound, please: `NC1=CC(=O)c2nc3ccccc3c3ccnc1c23`
Result :: n

Query :: Please let me know the test result on file for `Clc1ccc(C2=NN[C@H](c3cn(-c4ccccc4)nc3-c3ccccc3)C2)cc1` .
Result :: n

Query :: Field: outcome | Entry: `O=C(CN1C(=O)S/C(=C\C(Cl)=C\c2ccccc2)C1=O)NCCc1ccc(O)cc1`
Result :: n

Further cases:
Query :: Record lookup: outcome of this test for `O=C(O)c1c[nH]c2c(OCc3ccccc3)c3ccccc3c(O)c2c1=O` ?
Result :: n

Query :: Dear all, I need the recorded test outcome for `COc1ccc(OC)c(/C=C2\COc3ccc(O)c(O)c3C2=O)c1` , thank you.
Result :: n

Query :: Any idea what this test logged for CC(=O)OC1Oc2cc(C)c(C)cc2-c2oc(=O)c(-c3ccc(F)cc3)cc21 (stereo not given) ?
Result :: n

Query :: What was the test verdict on `COc1ccc(-c2nc(N3CCOCC3)c3sc(CN(C)c4ncc(C(=O)NO)cn4)cc3n2)cn1` ?
Result :: y

Query :: Which outcome was entered for the compound C=CC[C@@H]1/C=C(\C)C[C@H](C)C[C@H](OC)[C@H]2O[C@@](O)(C(=O)C(=O)N3CCCC[C@H]3C(=O)O[C@H](/C(C)=C/C3CC[C@@H](O)[C@H](OC)C3)[C@H](C)[C@@H](O)CC1=O)[C@H](C)C[C@@H]2OC (stereo not given in full) in this test?
Result :: n

Query :: Please indicate how the test categorized OCC1OC(n2cnc3c2NC=NC[C@H]3O)CC1O (stereo not given in full) .
Result :: n

Query :: Outcome logged for `O=C1CC[C@H](c2ccc(O)c3c2C(=O)[C@@H]2O[C@@H]2C3=O)c2cccc(O)c21` in this assay:
Result :: n
